biological target: FLT3 (D835Y) (Homo sapiens (Human), UniProt P36888, D835Y); test: FLT3 kinase radiometric HotSpot assay, FLT3 (D835Y); format: biochemical
ENDPOINT NAME: Ki

SMILES STRING | Ki
COc1ccc2ncc3c(-c4ccc(OC)c(OC)c4)nn(-c4ccc5c(c4)CNCC5)c3c2c1 | < 0.5 nM
COc1ccc2ncc3c(-c4ccc(OC)c(OC)c4)nn(-c4ccc5c(c4)CNC5)c3c2c1 | < 0.5 nM
COc1ccc(-c2nn(-c3ccc4c(c3)CNCC4)c3c2cnc2ccccc23)cc1OC | < 0.5 nM
COc1ccc2ncc3c(-c4ccc(OC)c(OC)c4)nn(-c4ccc5c(c4)CCNC5)c3c2c1 | < 0.5 nM
COc1ccc(-c2nn(-c3ccc4c(c3)CCNC4)c3c2cnc2ccccc23)cc1OC | 0.5 to 2 nM

Now, please, on to the next compound.
Enquiry: Param item = COc1ccc(-c2nn(-c3ccc4c(c3)CNC4)c3c2cnc2ccccc23)cc1OC ; retrieve measured Ki.
Return: < 0.5 nM

* * *

assay: HEK293 cytotoxicity; type: cell-based; settings: human, HEK293 cells
ENDPOINT NAME: CC50

SMILES STRING | CC50
COc1ccc2ncc3c(-c4ccc(OC)c(OC)c4)nn(-c4ccc5c(c4)CNC5)c3c2c1 | < 10 µM
COc1ccc(-c2nn(-c3ccc4c(c3)CNC4)c3c2cnc2ccccc23)cc1OC | ≥ 50 µM
COc1ccc2ncc3c(-c4ccc(OC)c(OC)c4)nn(-c4ccc5c(c4)CCNC5)c3c2c1 | < 10 µM
COc1ccc(-c2nn(-c3ccc4c(c3)CNCC4)c3c2cnc2ccccc23)cc1OC | < 10 µM

Continue with the next molecule.
Enquiry: Item COc1ccc(-c2nn(-c3ccc4c(c3)CCNC4)c3c2cnc2ccccc23)cc1OC has what recorded CC50?
Return: 10 to 50 µM

* * *

target: recombinant HPK1 protein (Homo sapiens (Human), UniProt Q92918); assay: Primary HPK1 enzymatic inhibition (ADP-Glo luminescence); settings: recombinant HPK1, MBP substrate, 1 hour at room temperature
Sequence (Q92918 whole entry): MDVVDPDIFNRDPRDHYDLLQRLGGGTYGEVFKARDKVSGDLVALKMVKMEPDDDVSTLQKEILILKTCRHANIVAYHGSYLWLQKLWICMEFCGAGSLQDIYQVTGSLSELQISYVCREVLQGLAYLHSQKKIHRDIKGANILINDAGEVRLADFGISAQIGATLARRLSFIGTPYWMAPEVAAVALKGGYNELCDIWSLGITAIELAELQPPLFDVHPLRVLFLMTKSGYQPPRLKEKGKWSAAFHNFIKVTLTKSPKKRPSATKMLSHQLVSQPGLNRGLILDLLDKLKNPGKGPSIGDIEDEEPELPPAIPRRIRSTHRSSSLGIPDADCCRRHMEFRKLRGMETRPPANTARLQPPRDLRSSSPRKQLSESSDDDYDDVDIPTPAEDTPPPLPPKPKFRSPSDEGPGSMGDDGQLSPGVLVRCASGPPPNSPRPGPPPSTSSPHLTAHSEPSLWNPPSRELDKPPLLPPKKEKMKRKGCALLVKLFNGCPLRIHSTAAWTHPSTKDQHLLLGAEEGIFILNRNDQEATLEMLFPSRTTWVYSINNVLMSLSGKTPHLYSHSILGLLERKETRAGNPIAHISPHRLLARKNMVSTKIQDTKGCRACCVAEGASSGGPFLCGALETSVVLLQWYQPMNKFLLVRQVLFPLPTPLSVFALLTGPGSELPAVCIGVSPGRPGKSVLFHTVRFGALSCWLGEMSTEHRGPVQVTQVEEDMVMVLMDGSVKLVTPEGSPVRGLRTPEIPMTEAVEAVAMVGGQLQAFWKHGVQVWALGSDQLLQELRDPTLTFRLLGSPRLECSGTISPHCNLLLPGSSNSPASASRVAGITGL
ENDPOINT NAME: Ki

COMPOUND | Ki
COc1ccc2ncc3c(-c4ccc(OC)c(OC)c4)nn(-c4ccc5c(c4)CNC5)c3c2c1 [Compound 1.36] | < 10 nM
COc1ccc2ncc3c(-c4cccc(N5CCC(N(C)C)CC5)c4)nn(-c4cccc(C)c4C)c3c2c1 [Compound 1.14] | < 10 nM

Enquiry: For COc1ccc2ncc3c(-c4ccc(OCCCN5CCOCC5)c(OC)c4)nn(-c4ccc(C)c(C)c4)c3c2c1 [Compound 1.26] , what is its reported Ki?
Return: 20 to 50 nM

Values were extracted from patent US20250011319A1.
